B1: DnaJ homolog subfamily C member 2, residues 451 to 503; numbered along this chain, Q99543 (parent)
chain: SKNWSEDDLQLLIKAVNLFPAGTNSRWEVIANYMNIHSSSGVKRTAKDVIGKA

Variants of: B1
Experiment: abundance fitness (aPCA) (normalised: wild type 0, dead -1); higher = more abundant; growth selection in yeast, the domain comes from the species named
Conditions: Homo sapiens
Recorded abundance fitness values for a group of variants are listed next.
OBSERVABLE: abundance fitness

>>> measured_value("P20F")
-0.984
>>> measured_value("R26H")
-0.831
>>> measured_value("N32M")
-0.302
>>> measured_value("I13H")
0.042
>>> measured_value("S38Y")
-1.03
>>> measured_value("V16W")
-0.268
>>> measured_value("I13T")
-0.141
>>> measured_value("K43G")
-0.302
>>> measured_value("K14I")
-0.296
>>> measured_value("K47G")
-0.039
>>> measured_value("A31Q")
-0.549
>>> measured_value("T23G")
-0.262
>>> measured_value("G22R")
-0.098
>>> measured_value("S38V")
-0.755
>>> measured_value("S5C")
-0.286
>>> measured_value("M34E")
-0.816
>>> measured_value("L12N")
-0.875
>>> measured_value("F19D")
-0.948
>>> measured_value("V49H")
-0.883
>>> measured_value("S39N")
-0.076
>>> measured_value("S40K")
-0.302
>>> measured_value("A53Q")
-0.081
>>> measured_value("D48G")
-0.554
>>> measured_value("L9H")
-0.071
>>> measured_value("V49C")
-0.031
>>> measured_value("A15V")
-0.511
>>> measured_value("Y33K")
-0.568
>>> measured_value("S5A")
-0.747
>>> measured_value("F19R")
-0.91
>>> measured_value("K47A")
0.054
>>> measured_value("D48C")
-0.393
>>> measured_value("I50N")
-0.229
>>> measured_value("M34D")
-0.833
>>> measured_value("K43P")
-0.209
>>> measured_value("P20R")
-0.392
>>> measured_value("K47P")
-0.133
>>> measured_value("N17Q")
-0.157
>>> measured_value("K47I")
-0.017
>>> measured_value("S1L")
-0.32
>>> measured_value("D8S")
-0.615
>>> measured_value("M34V")
0.003
>>> measured_value("P20A")
-0.571
>>> measured_value("W27E")
-0.168
>>> measured_value("S39D")
0.03
>>> measured_value("I13S")
0.073
>>> measured_value("A15F")
-0.847
>>> measured_value("L12E")
-0.952
>>> measured_value("G51A")
-0.019
>>> measured_value("Q10P")
-0.802
>>> measured_value("K2G")
-0.159
>>> measured_value("E6F")
0.038
>>> measured_value("G51I")
-0.176
>>> measured_value("L11V")
-0.37
>>> measured_value("K43E")
-0.096
>>> measured_value("K52P")
-0.077
>>> measured_value("S39F")
-0.362
>>> measured_value("G41D")
-0.066
>>> measured_value("L11I")
0.007
>>> measured_value("S25L")
-0.239
>>> measured_value("Y33S")
-0.87
>>> measured_value("L11A")
-0.712
>>> measured_value("N17R")
-0.036
>>> measured_value("A53G")
-0.112
>>> measured_value("K43M")
-0.146
>>> measured_value("A15H")
-0.754
>>> measured_value("D8A")
-0.977
